The reported measurements were obtained from ChEMBL document CHEMBL5291721.

Consider compounds characterized by their AC50 with Sodium-dependent serotonin transporter (Homo sapiens).
Sequence (P31645 whole entry): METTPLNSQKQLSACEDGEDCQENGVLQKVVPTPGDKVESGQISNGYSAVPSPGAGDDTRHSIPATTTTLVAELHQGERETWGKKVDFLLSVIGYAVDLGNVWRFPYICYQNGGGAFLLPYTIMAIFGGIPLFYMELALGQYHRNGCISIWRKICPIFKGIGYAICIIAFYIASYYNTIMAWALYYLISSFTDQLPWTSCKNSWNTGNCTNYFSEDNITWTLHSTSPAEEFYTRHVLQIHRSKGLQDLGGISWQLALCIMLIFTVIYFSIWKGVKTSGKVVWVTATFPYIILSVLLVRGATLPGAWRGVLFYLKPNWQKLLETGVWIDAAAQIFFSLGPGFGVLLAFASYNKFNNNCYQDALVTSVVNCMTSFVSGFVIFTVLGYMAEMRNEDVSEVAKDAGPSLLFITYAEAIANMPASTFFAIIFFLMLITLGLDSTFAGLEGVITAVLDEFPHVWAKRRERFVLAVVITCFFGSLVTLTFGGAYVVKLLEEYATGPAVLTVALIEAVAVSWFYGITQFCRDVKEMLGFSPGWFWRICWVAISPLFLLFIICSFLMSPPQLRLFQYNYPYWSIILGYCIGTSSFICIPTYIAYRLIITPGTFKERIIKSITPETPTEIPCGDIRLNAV

query_smiles=C=CCC1(CC(C)C)C(=O)NC(=O)NC1=O assayed_target="Sodium-dependent serotonin transporter (Homo sapiens)" recorded_endpoint=AC50 result="> 10 µM"
query_smiles=COc1cc2c(N)nc(N3CCN(C(=O)OCC(C)(C)O)CC3)nc2c(OC)c1OC assayed_target="Sodium-dependent serotonin transporter (Homo sapiens)" recorded_endpoint=AC50 result="> 30 µM"
query_smiles=CCOC(=O)[C@H](CCc1ccccc1)N[C@@H](C)C(=O)N1C(=O)N(C)C[C@H]1C(=O)O assayed_target="Sodium-dependent serotonin transporter (Homo sapiens)" recorded_endpoint=AC50 result="> 30 µM"

Next up:
State, in one line, measured AC50 of CC[C@@H]1C(=O)OC[C@@H]1Cc1cncn1C > 30 µM

###

- assayed_target: Amine oxidase [flavin-containing] A (Homo sapiens); also: assay procedure not described here
- Sequence (P21397 whole entry): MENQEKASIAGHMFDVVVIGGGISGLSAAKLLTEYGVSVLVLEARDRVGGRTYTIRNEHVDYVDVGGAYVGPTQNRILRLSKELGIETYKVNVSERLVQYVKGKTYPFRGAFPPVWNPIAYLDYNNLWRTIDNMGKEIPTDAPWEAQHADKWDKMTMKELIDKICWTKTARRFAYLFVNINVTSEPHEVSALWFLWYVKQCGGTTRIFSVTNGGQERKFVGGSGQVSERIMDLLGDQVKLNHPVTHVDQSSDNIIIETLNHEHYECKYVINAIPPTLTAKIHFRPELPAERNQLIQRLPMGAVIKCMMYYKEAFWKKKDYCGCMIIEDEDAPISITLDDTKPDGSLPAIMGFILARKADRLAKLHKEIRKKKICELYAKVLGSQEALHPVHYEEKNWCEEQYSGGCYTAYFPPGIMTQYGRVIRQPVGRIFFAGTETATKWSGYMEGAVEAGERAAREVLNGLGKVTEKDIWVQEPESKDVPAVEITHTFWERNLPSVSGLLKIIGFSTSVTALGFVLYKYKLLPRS
- Format: functional
Listing of entries alongside the reported AC50.

Take a look at these entries with their results.
compound=N[C@@H]1[C@H]2CN(c3nc4c(cc3F)c(=O)c(C(=O)O)cn4-c3ccc(F)cc3F)C[C@@H]12 assayed_target="Amine oxidase [flavin-containing] A (Homo sapiens)" result="> 30 µM"
compound=NCC(=O)CCC(=O)O assayed_target="Amine oxidase [flavin-containing] A (Homo sapiens)" result="> 30 µM"
compound=CC(C)Cn1cnc2c(N)nc3ccccc3c21 assayed_target="Amine oxidase [flavin-containing] A (Homo sapiens)" result="> 10 µM"
compound=CC[C@H]1[C@@H](O)[C@@H]2[C@H](CC[C@]3(C)[C@@H]([C@H](C)CCC(=O)O)CC[C@@H]23)[C@@]2(C)CC[C@@H](O)C[C@@H]12 assayed_target="Amine oxidase [flavin-containing] A (Homo sapiens)" result="> 30 µM"

Query AC50 for CN1CCN(CC/C=C2/c3ccccc3Sc3ccc(S(=O)(=O)N(C)C)cc32)CC1 > 10 µM

Give AC50 for the following compound: Cc1oc(=O)oc1CN1CCN(c2cc3c(cc2F)c(=O)c(C(=O)O)c2n3C(C)S2)CC1 (configuration not stated) > 30 µM

###

Dear all, this message contains AC50 results, target or system Sodium-dependent serotonin transporter (Homo sapiens, UniProt P31645).

These solved cases illustrate the format of a correct answer.
compound="CCCNC(C)C(=O)Nc1c(C)csc1C(=O)OC (stereo not given) [ARTICAINE]" result="> 30 µM"
compound="Nc1ccncc1N [AMIFAMPRIDINE]" result="> 30 µM"
compound="Clc1ccc(C(OCCN2CCCCC2)c2ccccc2)cc1 (stereo not given) [CLOPERASTINE]" result="15.4 µM"
compound="N=c1ccn2c(n1)O[C@H]1[C@H](O)[C@@H](CO)O[C@H]12 [ANCITABINE]" result="> 30 µM"

Indicate the recorded AC50 value for this compound: CCCCS(=O)(=O)N[C@@H](Cc1ccc(OCCCCC2CCNCC2)cc1)C(=O)O [TIROFIBAN] 9.96 µM

Supply recorded AC50 for CC[C@H]1[C@@H](O)[C@@H]2[C@H](CC[C@]3(C)[C@@H]([C@H](C)CCC(=O)O)CC[C@@H]23)[C@@]2(C)CC[C@@H](O)C[C@@H]12 [OBETICHOLIC ACID] here. > 30 µM

Fill in reported AC50 for this entry: C=CCCCCCCCCC(=O)O [UNDECYLENIC ACID] > 30 µM

Please list AC50 recorded for the compound O=C(O)c1cc(O)ccc1O [GENTISIC ACID] > 30 µM

Provide only the value of recorded AC50 for CCN(CC)CCOC(=O)C(c1ccccc1)C1CCCCC1 (stereo not given) [DROFENINE] > 30 µM

Note AC50 for the compound shown: CCC(C)(C)c1ccc(CC(C)CN2C[C@@H](C)O[C@@H](C)C2)cc1 (stereo not given in full) [AMOROLFINE] > 30 µM
